Test system: Human myeloid monocytic leukemia cell line (MV-4-11)
experiment: Inhibition of MV-4-11 cell proliferation (CellTiter luminescent viability)
Assay type: cell-based
condition.parameters: Homo sapiens, MV4-11; Table IB2, ALK inhibitor-based; MV-4-11, 10 nM, 96 hours; read-out: Inhibition Rate at 10 nM (%)
property.name: inhibition at 0.01 µM

Some compounds with known inhibition at 0.01 µM results, for comparison:
compound: COc1cc(N2CCC(N3CCN(Cc4ccc5c(c4)CN(N4CCC(=O)NC4=O)C5=O)CC3)CC2)ccc1Nc1ncc(Cl)c(Nc2ccccc2P(C)(C)=O)n1 [GT-08146]
inhibition at 0.01 µM: 15 to 20%

compound: COc1cc(N2CCC(N3CCN(Cc4ccc5c(c4)C(=O)N(N4CCC(=O)NC4=O)C5=O)CC3)CC2)ccc1Nc1ncc(Cl)c(Nc2ccccc2P(C)(C)=O)n1 [GT-08147]
inhibition at 0.01 µM: 20 to 30%

compound: COc1cc(N2CCC(N(C)Cc3ccc4c(c3)CN(N3CCC(=O)NC3=O)C4=O)CC2)ccc1Nc1ncc(Cl)c(Nc2ccccc2P(C)(C)=O)n1 [GT-08148]
inhibition at 0.01 µM: 5 to 10%

compound: CCc1cc2c(cc1N1CCC(N3CCOCC3)CC1)C(C)(C)c1[nH]c3cc(C#N)ccc3c1C2=O [alectinib, Alectinib, reference compound]
inhibition at 0.01 µM: 5 to 10%

compound: COc1cc(N2CCC(N3CCN(CC4CCN(c5ccc6c(c5)C(=O)N(N5CCC(=O)NC5=O)C6=O)CC4)CC3)CC2)ccc1Nc1ncc(Cl)c(Nc2ccccc2P(C)(C)=O)n1 [GT-08251]
inhibition at 0.01 µM: 30 to 45%

compound: COc1cc(N2CCC(N(C)CC3CCN(c4ccc5c(c4)C(=O)N(N4CCC(=O)NC4=O)C5=O)CC3)CC2)ccc1Nc1ncc(Cl)c(Nc2ccccc2P(C)(C)=O)n1 [GT-08253]
inhibition at 0.01 µM: 15 to 20%

Proceeding to the next compound to report its inhibition at 0.01 µM.
Query the reported inhibition at 0.01 µM for Human myeloid monocytic leukemia cell line (MV-4-11); item: COc1cc(N2CCC(N(C)CC3CCN(c4cccc5c4C(=O)N(N4CCC(=O)NC4=O)C5=O)CC3)CC2)ccc1Nc1ncc(Cl)c(Nc2ccccc2P(C)(C)=O)n1 [GT-08254] 45 to 55%

###

Tested on: Human breast cancer cell line (MDA-MB-231)
experiment: Inhibition of MDA-MB-231 cell proliferation (CellTiter luminescent viability)
Assay type: cell-based
condition.parameters: Table IG3, FAK inhibitor-based, MDA-MB-231, 10 nM, 96 hours, read-out: Inhibition Rate at 10 nM (%)
Reported values of inhibition at 0.01 µM for individual entries

Some compounds with known inhibition at 0.01 µM results, for comparison:
compound: CN(Cc1ccc2c(c1)C(=O)N(N1CCC(=O)NC1=O)C2)C1CCN(c2ccc(Nc3ncc(C(F)(F)F)c(NCc4nccnc4N(C)S(C)(=O)=O)n3)cc2)CC1
experimental.system: Human breast cancer cell line (MDA-MB-231)
inhibition at 0.01 µM: 20 to 30%

compound: CNC(=O)c1ccccc1Nc1cc(Nc2ccc(N3CCC(N(C)Cc4ccc5c(c4)CN(N4CCC(=O)NC4=O)C5=O)CC3)cc2OC)ncc1C(F)(F)F
experimental.system: Human breast cancer cell line (MDA-MB-231)
inhibition at 0.01 µM: 40 to 50%

compound: CNC(=O)c1ccc(Nc2ncc(C(F)(F)F)c(NCc3nccnc3N(C)S(C)(=O)=O)n2)cc1 [Defactinib, reference compound]
experimental.system: Human breast cancer cell line (MDA-MB-231)
inhibition at 0.01 µM: 30 to 40%

compound: CNC(=O)c1ccccc1Nc1cc(Nc2ccc(N3CCOCC3)cc2OC)ncc1C(F)(F)F [PND-1186, reference compound]
experimental.system: Human breast cancer cell line (MDA-MB-231)
inhibition at 0.01 µM: 30 to 40%

Requested field: inhibition at 0.01 µM. Item: `CN(c1nccnc1CNc1nc(Nc2ccc(N3CCN(CC4CCN(c5ccc6c(c5)C(=O)N(N5CCC(=O)NC5=O)C6=O)CC4)CC3)cc2)ncc1C(F)(F)F)S(C)(=O)=O` 20 to 30%

Now the compound `CN(c1cccc(CNc2nc(Nc3ccc(N4CCC(N5CCN(CC6CCN(c7cccc8c7C(=O)N(N7CCC(=O)NC7=O)C8=O)CC6)CC5)CC4)cc3)ncc2C(F)(F)F)c1)S(C)(=O)=O` 20 to 30%

Now the compound `CN(c1nccnc1CNc1nc(Nc2ccc(N3CCC(N4CCN(CC5CCN(c6cccc7c6C(=O)N(N6CCC(=O)NC6=O)C7=O)CC5)CC4)CC3)cc2)ncc1C(F)(F)F)S(C)(=O)=O` 30 to 40%

Now the compound `CN(c1nccnc1CNc1nc(Nc2ccc(N3CCN(CC4CCN(c5cccc6c5C(=O)N(N5CCC(=O)NC5=O)C6=O)CC4)CC3)cc2)ncc1C(F)(F)F)S(C)(=O)=O` 30 to 40%

###

Test system: Human T lymphocytic leukemia cell line (Jurkat)
experiment: Inhibition of Jurkat cell proliferation (CellTiter luminescent viability)
Assay type: cell-based
condition.parameters: Table IC1, BTK inhibitor-based, 96 hours, read-out: Inhibitory activity (IC50, nM) on tumor cell proliferation, Jurkat
Reported values of IC50 for individual entries

Requested field: IC50. Item: `Nc1ncnc2c1c(-c1ccc(Oc3ccccc3)cc1)nn2C1CCN(Cc2ccc3c(c2)CN(N2CCC(=O)NC2=O)C3=O)CC1` 50 to 100 nM

Now the compound C=CC(=O)N1CCC[C@@H](n2nc(-c3ccc(Oc4ccccc4)cc3)c3c(N)ncnc32)C1 [ibrutinib, Ibrutinib, reference compound] > 10000 nM

Now the compound C=CC(=O)N1CCC(c2ccc(C(N)=O)c(-c3ccc(Oc4ccccc4)cc3)n2)CC1 [Orelabrutinib, reference compound] > 10000 nM

###

Reported values of inhibition at 0.01 µM for individual entries
System: Human lung cancer cell line (H292)
experiment: Inhibition of H292 cell proliferation (CellTiter luminescent viability)
Assay type: cell-based
condition.parameters: NCI-H292, Table IE2, CDK4/6 inhibitor-based, H292, 10 nM, 96 hours, read-out: Inhibition Rate at 10 nM (%)

Some molecules with known inhibition at 0.01 µM results, for comparison:
molecule: CN(C)C(=O)c1cc2cnc(Nc3ccc(N4CCC(CN5CCN(c6cc7c(cc6F)C(=O)N(N6CCC(=O)NC6=O)C7=O)CC5)CC4)cn3)nc2n1C1CCCC1
inhibition at 0.01 µM: 40 to 60%
//
molecule: CN(C)C(=O)c1cc2cnc(Nc3ccc(N4CCN(CC5CCN(c6cccc7c6C(=O)N(N6CCC(=O)NC6=O)C7=O)CC5)CC4)cn3)nc2n1C1CCCC1
inhibition at 0.01 µM: 30 to 35%
//
molecule: CC(=O)c1c(C)c2cnc(Nc3ccc(N4CCN(Cc5ccc6c(c5)CN(N5CCC(=O)NC5=O)C6=O)CC4)cn3)nc2n(C2CCCC2)c1=O
inhibition at 0.01 µM: 30 to 35%
//
molecule: CN(C)C(=O)c1cc2cnc(Nc3ccc(N4CCC(CN5C6CCC5CN(c5ccc7c(c5)C(=O)N(N5CCC(=O)NC5=O)C7=O)C6)CC4)cn3)nc2n1C1CCCC1
inhibition at 0.01 µM: 35 to 40%

Proceeding to the next molecule to report its inhibition at 0.01 µM.
Requested field: inhibition at 0.01 µM. Item: CC(=O)c1c(C)c2cnc(Nc3ccc(N4CCNCC4)cn3)nc2n(C2CCCC2)c1=O [Palbociclib, reference compound] 10 to 15%

###

Test system: Human Multiple myeloma cell line (MM.1S)
experiment: Inhibition of MM.1S cell proliferation (CellTiter luminescent viability)
Assay type: cell-based
condition.parameters: Homo sapiens, MM1.S, Table IG1, FAK inhibitor-based, 10 nM, 96 hours, read-out: Inhibition Rate at 10 nM (%)
property.name: inhibition at 0.01 µM

molecule: CN(c1nccnc1CNc1nc(Nc2ccc(N3CCN(CC4CCN(c5ccc6c(c5)C(=O)N(N5CCC(=O)NC5=O)C6=O)CC4)CC3)cc2)ncc1C(F)(F)F)S(C)(=O)=O
experimental.system: Human Multiple myeloma cell line (MM.1S)
inhibition at 0.01 µM: 20 to 30%
--
molecule: CN(c1nccnc1CNc1nc(Nc2ccc(N3CCC(N4CCN(CC5CCN(c6cccc7c6C(=O)N(N6CCC(=O)NC6=O)C7=O)CC5)CC4)CC3)cc2)ncc1C(F)(F)F)S(C)(=O)=O
experimental.system: Human Multiple myeloma cell line (MM.1S)
inhibition at 0.01 µM: 5 to 10%
--
molecule: CN(c1cccc(CNc2nc(Nc3ccc(N4CCN(CC5CCN(c6ccc7c(c6)C(=O)N(N6CCC(=O)NC6=O)C7=O)CC5)CC4)cc3)ncc2C(F)(F)F)c1)S(C)(=O)=O
experimental.system: Human Multiple myeloma cell line (MM.1S)
inhibition at 0.01 µM: 30 to 40%
--
molecule: CNC(=O)c1ccccc1Nc1cc(Nc2cc(C)c(C3CCN(Cc4ccc5c(c4)CN(N4CCC(=O)NC4=O)C5=O)CC3)cc2OC(C)C)ncc1C(F)(F)F
experimental.system: Human Multiple myeloma cell line (MM.1S)
inhibition at 0.01 µM: 5 to 10%

Proceeding to the next molecule to report its inhibition at 0.01 µM.
Requested field: inhibition at 0.01 µM. Item: CNC(=O)c1ccc(Nc2ncc(C(F)(F)F)c(NCc3nccnc3N(C)S(C)(=O)=O)n2)cc1 [Defactinib, reference compound] 5 to 10%

The reported numbers originate from patent US20260364184A1.
